- Tested on: MCF7 breast
- Assay Details: NCI-60 one-dose screen, 48 h
- Stated Conditions: 10 µM unless noted
The panel holds about 83,000 compounds, 20% with a hit somewhere; the sample as a whole holds those more often. The source made the active and inactive calls. How the source made its calls: active means growth percent below 10; inactive means the rest.
Output constraint: value belongs to active, inactive

COc1ccc(-c2c(C)nn3c(NCCN4CCOCC4)cc(C)nc23)cc1OC; inactive

query: Test call for this molecule, please: Nc1cc(NN=C(c2ccc(O)cc2)c2ccc(O)cc2)c([N+](=O)[O-])cc1[N+](=O)[O-]
result: active

query: Test call for this molecule, please: CCCCC1COc2cccc3c2N1C=C/C3=C\C(=O)n1ccc2ccccc21 (centres undefined)
result: inactive

query: Test call for this molecule, please: C#C[C@]1(O)CC[C@H]2[C@@H]3CC=C4c5nc(Nc6ccccn6)sc5CC[C@]4(C)[C@H]3CC[C@@]21C
result: active

query: Test call for this molecule, please: CCN(CC)c1ccc2cc(C(Nc3ccc(Cl)cc3)c3nnnn3C(C)(C)C)c(=O)oc2c1 (centres undefined)
result: inactive

query: Test call for this molecule, please: CCN1c2ccccc2C(Cl)(c2ccc(N(C)C)cc2)c2ccccc21
result: inactive

query: Test call for this molecule, please: O=C1COCCN1c1ccc(Nc2nc(Cl)nc(N3CCOCC3)n2)cc1
result: inactive

query: Test call for this molecule, please: NNC(=O)c1ccc(C(=O)NN)cc1
result: inactive
